Data origin: patent EP4696714A1

# experimental_system: TF on the surface of tumor cells (MDA-MB-231, HPAF-II, HCC1806, BxPC3, HCC44, PC9, H1975 and other … (UniProt P13726 33-295, limits assumed))
# measurement_description: cell-based or functional assay
Some binders, each annotated with its measured Cell proliferation inhibition IC50, HCC1806 cells (MTS).

A selection of reference data follows.
{"binder": "5-C12-FC1-MMAE (5-C12-FC1 coupled to mc-vc-MMAE) (Fc fusion, mc-vc-MMAE coupled to cysteine thiols after TCEP reduction; DAR4 about 66.2% and DAR2 about 21.9% by HIC; positions not given) QVQLVESGGGLAQAGGSLRLSCAGSGRTFSTDAMGWFRQAPGKEREFVAAINWSGGSTYYADSVKGRFTISRDNAKNTVYLQMNSVKPEDTAVYYCVADSLLALLDGSRGGPGTDSDSWGQGTQVTVSSEPKSSDKTHTCPPCPAPEFEGGPSVFLFPPKPKDTLMISRTPEVTCVVVDVSHEDPEVKFNWYVDGVEVHNAKTKPREEQYNSTYRVVSVLTVLHQDWLNGKEYKCKVSNKALPASIEKTISKAKGQPREPQVYTLPPSRDELTKNQVSLTCLVKGFYPSDIAVEWESNGQPENNYKTTPPVLDSDGSFFLYSKLTVDKSRWQQGNVFSCSVMHEALHNHYTQKSLSLSPGK", "result": "0.026 µg/mL"}
{"binder": "4-E04-FC1-MMAE (4-E04-FC1 coupled to mc-vc-MMAE) (Fc fusion, mc-vc-MMAE coupled to cysteine thiols after TCEP reduction; the coupling did not complete and the proportion of coupling products was very low; positions not given) AVQLVESGGGLVQPGGSLSLSCAASEMISSTYIMGWYRRSPGKERELVAVISGDGVTHYGDFVKGRFAISRDNVKNAVYLKMNFLTPEDTAVYYCNAAGRRNHWGQGTQVTVSSEPKSSDKTHTCPPCPAPEFEGGPSVFLFPPKPKDTLMISRTPEVTCVVVDVSHEDPEVKFNWYVDGVEVHNAKTKPREEQYNSTYRVVSVLTVLHQDWLNGKEYKCKVSNKALPASIEKTISKAKGQPREPQVYTLPPSRDELTKNQVSLTCLVKGFYPSDIAVEWESNGQPENNYKTTPPVLDSDGSFFLYSKLTVDKSRWQQGNVFSCSVMHEALHNHYTQKSLSLSPGK", "result": "0.0326 µg/mL"}
{"binder": "4-C05-FC1-MMAE (4-C05-FC1 coupled to mc-vc-MMAE) (Fc fusion, mc-vc-MMAE coupled to cysteine thiols after TCEP reduction; target DAR 4; positions not given) QVQLVESGGGLVQPGGSLRLSCAASGFTLDTYAIGWIRQAPGKEREGVSCISSTDGSTYYAASVKGRFTINRDNAKNTVYLQMNSLKPEDTAVYYCAAGPGTDCPLRFDYWGQGIQVTVSSEPKSSDKTHTCPPCPAPEFEGGPSVFLFPPKPKDTLMISRTPEVTCVVVDVSHEDPEVKFNWYVDGVEVHNAKTKPREEQYNSTYRVVSVLTVLHQDWLNGKEYKCKVSNKALPASIEKTISKAKGQPREPQVYTLPPSRDELTKNQVSLTCLVKGFYPSDIAVEWESNGQPENNYKTTPPVLDSDGSFFLYSKLTVDKSRWQQGNVFSCSVMHEALHNHYTQKSLSLSPGK", "result": "0.014 µg/mL"}

Now turn to the next binder.
In: GET /values?readout=Cell proliferation inhibition IC50, HCC1806 cells (MTS)&item= 4-A02-FC1-MMAE (4-A02-FC1 coupled to mc-vc-MMAE) (Fc fusion, mc-vc-MMAE coupled to cysteine thiols after TCEP reduction; target DAR 4 for the dimer (about 95% DAR4 by HIC); positions not given) QVQLVESGGGLVQPGGSLSLSCTASETISSTYIMGWHRRSPGKERELVAVISGDGVTHYADFVKGRFVISRDNAKNAVYLKMNFLTPEDTAVYYCYAAGRWNHWGQGTQVTVSSEPKSSDKTHTCPPCPAPEFEGGPSVFLFPPKPKDTLMISRTPEVTCVVVDVSHEDPEVKFNWYVDGVEVHNAKTKPREEQYNSTYRVVSVLTVLHQDWLNGKEYKCKVSNKALPASIEKTISKAKGQPREPQVYTLPPSRDELTKNQVSLTCLVKGFYPSDIAVEWESNGQPENNYKTTPPVLDSDGSFFLYSKLTVDKSRWQQGNVFSCSVMHEALHNHYTQKSLSLSPGK
Out: 0.0001 µg/mL
